# Tested on: Venturia inaequalis
# assay.protocol: Example A apple scab
# Type: in vivo
# condition.context: 100 PPM, read-out: disease control rating, Ex. A
quantity.kind: pest or weed control at 100 ppm
Please answer using the number first and the unit second.

Under Venturia inaequalis: pest or weed control at 100 ppm value of C=C(c1ccccc1)C(O)(Cn1cncn1)c1ccc(F)cc1F (centres unmarked) [Example 52] ?
100%

Another compound to check: C=C(c1ccc(Cl)cc1)C(O)(Cn1cncn1)c1ccc(Cl)cc1Cl (centres unmarked) [Example 26]
100%

Another compound to check: C=C(CN1CC(C)OC(C)C1)C(O)(Cn1cncn1)c1ccc(F)cc1 (centres unmarked) [Example 477]
95%

Another compound to check: OC(Cn1cncn1)(c1ccc(F)cc1)C1(c2ccccc2)CO1 (centres unmarked) [Example 1527]
0%

Another compound to check: C=C(c1ccc(Cl)cc1)C(O)(Cn1cncn1)c1ccc(F)cc1F (centres unmarked) [Example 28]
89%

----------
Here the recorded plant response is given for each entry.
# Test system: BONANZA BARLEY
# assay.protocol: Test E
# Assay type: in vivo, Hordeum vulgare cv. Bonanza
# condition.context: POSTEMERGENCE 0064 GM/HA
Numbers only here, please. The scale is %.

C=C(c1ccccc1)C(O)(Cn1cncn1)c1ccc(F)cc1F (stereo not shown) [Example 52]: 0

Under BONANZA BARLEY: plant response value of C=C(c1ccc(F)cc1)C(O)(Cn1cncn1)c1ccccc1F (stereo not shown) [Example 644] ?
0

Another compound to check: C=C(c1ccccc1)C(O)(Cn1cncn1)c1ccc(Cl)cc1 (stereo not shown) [Example 51]
0

Another compound to check: C=C(c1ccc(F)cc1)C(O)(Cn1cncn1)c1ccc(F)cc1F (stereo not shown) [Example 4]
20

----------
# Tested on: BARNYARDGRASS
# assay.protocol: Test C rice paddy
# Assay type: in vivo, Echinochloa crusgalli
# condition.context: Echinochloa crus-galli, 504 h; 0250 G/HA, 21 days; read-out: plant response
Here the recorded pest or weed control at 250 g/ha is given for each entry.
Numbers only here, please. The scale is %.

Which pest or weed control at 250 g/ha value belongs to C=C(c1ccc(F)cc1)C(O)(Cn1ncnc1S)c1ccc(F)cc1F (stereo not drawn) [Example 1304] ?
100

Another molecule to check: C=C(c1ccccc1)C(O)(Cn1cncn1)c1ccc(Cl)cc1Cl (stereo not drawn) [Example 50]
60

Another molecule to check: C=C(c1cccc(F)c1)C(O)(Cn1cncn1)c1ccc(F)cc1F (stereo not drawn) [Example 18]
0

----------
Here the recorded pest or weed control at 1000 g/ha is given for each entry.
# Test system: RICE INDICA EFF
# assay.protocol: Test C rice paddy
# Type: in vivo
# condition.context: Oryza sativa, 504 h; 1000 G/HA, 21 days; read-out: plant response

C=C(c1cccc(F)c1)C(O)(Cn1cncn1)c1ccc(F)cc1F (stereo not drawn): 50%

Which pest or weed control at 1000 g/ha value belongs to C=C(c1ccc(Cl)cc1)C(O)(Cn1cncn1)c1ccccc1F (stereo not drawn) ?
0%

Another molecule to check: C=C(c1ccccc1Cl)C(O)(Cn1cncn1)c1ccc(F)cc1F (stereo not drawn)
20%

----------
# System: Plasmorpara viticola
# assay.protocol: Example I grape downy mildew
# Type: in vivo
# condition.context: read-out: disease control rating, Ex. I
Here the recorded pest or weed control at 100 ppm is given for each entry.
Numbers only here, please. The scale is %.

Please review the following examples before continuing.
C=C(c1ccc(F)cc1)C(O)(CCCC)Cn1cncn1 (stereo not drawn): 0
C=C(c1ccc(Cl)cc1)C(O)(Cn1cncn1)c1ccc(Cl)cc1 (stereo not drawn): 84
C=C(c1cccc(F)c1)C(O)(Cn1cncn1)c1ccc(Cl)cc1Cl (stereo not drawn): 23

Now turn to the next compound.
Under Plasmorpara viticola: pest or weed control at 100 ppm value of C=C(c1ccc(F)cc1)C(O)(Cn1cncn1)c1ccc(Cl)cc1 (stereo not drawn) ?
0
